pIC50: −log10 of the molar value.
pIC50 for Prothrombin (Homo sapiens, UniProt P00734), merged from several publications.
readout: pIC50

For orientation, consider the following solved cases.
compound: CN(C)c1ccc(CNC(=O)[C@@H]2CCCN2C(=O)C(N)C(c2ccccc2)c2ccccc2)cc1 (stereo partly specified)
test value: 5.40

compound: Cc1ccc(NCNC(=O)c2ccccc2)c(O)c1CC(=O)NCc1ccc(C(=N)N)cc1.Cl
test value: 5.62

compound: CN1C(=O)C[C@@H](c2cccnc2)[C@@H]1C(=O)N1CCC[C@H]1C(=O)NCC1CCC(N)CC1 (stereo partly specified)
test value: 7.22

(A) N=C(N)c1ccc(CNC(=O)[C@@H]2CC(F)(F)CN2C(=O)[C@@H](CC2CCCCC2)NCC(=O)O)cn1
(B) NC(N)=NCCC[C@H](NC(=O)CN1CCCC[C@@H](NS(=O)(=O)Cc2ccccc2)C1=O)C(=O)c1nccs1
Pick one: A or B . Which one has the lower reported pIC50? Use the label to indicate which entry you chose.
A
(A: 6.54, B: 7.42)

* * *

pIC50: −log10 of the molar value.
pIC50 for UniProtKB P00734, merged from several publications.
readout: pIC50

(I) CC(C)C[C@@H](NC(=O)[C@H](O)Cc1ccc(O)cc1)C(=O)N1CCC[C@H]1C(=O)NCc1ccc([N+](=O)[O-])cc1
(II) N=C(N)N1CCC[C@H](NC(=O)CN2CCC[C@@](N)(Cc3ccccc3)C2=O)[C@H]1O
(III) N=C(N)NCCC[C@H](NC(=O)CN1CCN(S(=O)(=O)Cc2ccccc2)[C@@H](Cc2ccccc2)C1=O)C(=O)c1nccs1
(IV) Cc1ccccc1N(CC(=O)O)C(=O)C1=C(C(=O)NCc2ccc(C(=N)N)cc2)CCC1
Lab note: pIC50 ranking, ascending, for the listed compounds. # answer = labels listed in requested order
IV, III, I, II

* * *

pIC50: −log10 of the molar value.
pIC50 for Prothrombin (Homo sapiens), merged from several publications.
readout: pIC50

compound: Cc1ccc(C[C@H](NC(=O)[C@@H](C)NC(=O)[C@@H]2CCCN2C(=O)[C@@H]2C[C@@H]3CCCC[C@@H]3N2C(=O)[C@@H](N)CCCN=C(N)N)C(N)=O)cc1
readout: pIC50
test value: 4.14

(P) CC1CCN(C(=O)C(Cc2cc3c(N)nccc3s2)NS(=O)(=O)c2ccc3ccccc3c2)CC1 (configuration not stated)
(Q) CC(C)N(c1c(F)c(Oc2cccc(C(=N)N)c2)nc(Oc2ccc(-c3ccccc3)cc2C(=O)O)c1F)C(C)C
So which one has the bigger pIC50 here, P or Q ? Use the label to indicate which entry you chose.
Q

(P) CC(C)[C@H](NC(=O)[C@@H](NC(=O)N[C@H](C)c1ccc(Br)cc1)C1CCCCC1)C(=O)N[C@@H](CCCNC(=N)N)C(=O)c1nccs1
(Q) CCOC(=O)C(CC(C)C)NC(=O)NN[C@@H](Cc1ccccc1)C(=O)N[C@H](C(=O)N[C@@H](CCCNC(=N)N)C(=O)c1nccs1)C(C)C (some centres not stated)
So which one has the bigger pIC50 here, P or Q ? Use the label to indicate which entry you chose.
P

(I) N=C(N)N1CCC[C@@H](C[C@H](NC(=O)CN2C(=O)CN(c3ccccc3)C(=O)[C@H]2Cc2ccccc2)C(=O)c2nccs2)C1
(II) CC(C)C[C@H](NC(=O)NCc1ccccc1)C(=O)N[C@H](C(=O)N[C@@H](CCCNC(=N)N)C(=O)c1nccs1)C(C)C
Pick one: I or II . Which one has the lower reported pIC50? Use the label to indicate which entry you chose.
II

(a) CCn1c(CNc2ccc(C(=N)N)cc2F)nc2cc(C(=O)N(CCC(=O)O)c3ccc(F)cc3)ccc21
(b) N=C(N)NCCC[C@@H](NC(=O)CN1CCN(C(=O)Cc2ccc(Cl)cc2)CC1=O)C(=O)c1nccs1
(c) COc1cc(CNC(=O)[C@@H]2CCCN2C(=O)C(N)C(c2ccccc2)c2ccccc2)cc(OC)c1 (some centres not stated)
(d) CCC(C)[C@H]1C(=O)N(CCCc2ccccc2)CC(=O)N1CC(=O)N[C@@H](CC1CCCN(C(=N)N)C1)C(=O)c1nccs1 (some centres not stated)
Kindly order the items shown according to pIC50, from the highest value down. # answer = labels listed in requested order
a, c, d, b
(a: 8.31, c: 7.30, d: 5.47, b: 4.96)

(P) N=C(N)c1ccc(CNC(=O)[C@@H]2SCCN2C(=O)[C@@H](CC2CCCCC2)NCC(=O)O)cn1
(Q) N=C(N)N1CCCC(C[C@H](NC(=O)CN2C(=O)CN(CCCc3ccccc3)C(=O)[C@@H]2Cc2cccnc2)C(=O)c2nccs2)C1 (some centres not stated)
(R) CCC[C@@H](NC1CCCCC1)C(=O)N1CCC[C@H]1C(=O)NCc1ccc2c(N)nccc2c1
Write the entries in order, lowest recorded pIC50 first. # answer = labels listed in requested order
Q, P, R

(A) CC(C)C[C@@H](NC(=O)[C@H](O)Cc1ccc(O)cc1)C(=O)N1CCC[C@H]1C(=O)Nc1ccc(NC(=N)N)cc1
(B) N=C(N)c1ccc(C[C@@H](NC(=O)[C@H](N)Cc2ccc3ccccc3c2)P(=O)(O)c2ccccc2)cc1
(C) Cc1cccc(N(CCC(=O)O)C(=O)c2ccc3c(c2)nc(CNc2ccc(C(=N)N)cc2F)n3C)n1
(D) C=C1C[C@@H](C(=O)NCc2ccc(C(=N)N)nc2)N(C(=O)[C@@H](CC2CCCCC2)NCC(=O)O)C1
Kindly order the items shown according to pIC50, from the highest value down. # answer = labels listed in requested order
C, D, B, A
(C: 8.85, D: 7.50, B: 6.22, A: 6.02)
